target or test system: human Siglec-2/CD22 protein (Homo sapiens, UniProt P20273)
Construct: purchased Acro Biosystems SI2-H82E3
test description: SPR binding affinity to human CD22
applied conditions: steady-state analysis
pKd: −log10 of the molar value.
Catalogue of pKd values
reported metric: pKd

>>> print(df.to_string())
                            molecule_smiles                     target_or_test_system  reported_metric  endpoint_value
0  CC(=O)NCCOCCOCCOCCOCCC(=O)NCCCCCCO[C@]1(C(=O)O)C[C@H](O)[C@@H](NC(=O)CO)[C@H]([C@H](O)[C@H](O)CNC(=O)Cc2ccc(C(F)F)cc2)O1  human Siglec-2/CD22 protein (Homo sapiens, UniProt P20273)              pKd          > 6.00
1  C#CCOCCOCCO[C@]1(C(=O)O)C[C@H](O)[C@@H](NC(=O)CS)[C@H]([C@H](O)[C@H](O)CNC(=O)Cc2ccc(-c3ccc(O)cc3)cc2)O1  human Siglec-2/CD22 protein (Homo sapiens, UniProt P20273)              pKd    5.00 to 6.00
2  C#CCOCCCCCCO[C@]1(C(=O)O)C[C@H](O)[C@@H](NC(=O)C(=O)Nc2ccccc2)[C@H]([C@H](O)[C@H](O)CNC(=O)Cc2ccc(Cl)cc2)O1  human Siglec-2/CD22 protein (Homo sapiens, UniProt P20273)              pKd          > 6.00

###

target or test system: human Siglec-2/CD22 protein (Homo sapiens)
test description: SPR binding affinity to human CD22
applied conditions: steady-state analysis
pKd: −log10 of the molar value.
Catalogue of pKd values

compound	pKd
C#CCCOc1ccc(CS[C@]2(C(=O)O)C[C@H](O)[C@@H](NC(=O)CO)[C@H]([C@H](O)[C@H](O)CNC(=O)Cc3ccc(-c4ccc(O)cc4)cc3)O2)cc1	> 6.00
CC(=O)NCCOCCOCCOCCOCCNC(=O)CCCCCCO[C@]1(C(=O)O)C[C@H](O)[C@@H](NC(=O)CO)[C@H]([C@H](O)[C@H](O)CNC(=O)Cc2ccc(Cl)cc2)O1	> 6.00
C#CCCOc1ccc(CO[C@]2(C(=O)O)C[C@H](O)[C@@H](NC(=O)CO)[C@H]([C@H](O)[C@H](O)CNC(=O)Cc3cccc(-c4ccc(O)cc4)c3)O2)cc1	> 6.00
C#CCOCCOCCNc1c(NCCCCCCO[C@]2(C(=O)O)C[C@H](O)[C@@H](NC(=O)CO)[C@H]([C@H](O)[C@H](O)CNC(=O)C(F)(F)c3ccccc3)O2)c(=O)c1=O [Compound 41]	5.00 to 6.00
CC(=O)NCCOCCOCCOCCOCCn1cc(COCCCCCCO[C@]2(C(=O)O)C[C@H](O)[C@@H](NC(=O)CO)[C@H]([C@H](O)[C@H](O)CNC(=O)Cc3ccc(Cl)cc3)O2)nn1	> 6.00

###

Catalogue of Kd values
target or test system: human Siglec-2/CD22 protein (Homo sapiens, UniProt P20273)
Sequence (P20273 20-847): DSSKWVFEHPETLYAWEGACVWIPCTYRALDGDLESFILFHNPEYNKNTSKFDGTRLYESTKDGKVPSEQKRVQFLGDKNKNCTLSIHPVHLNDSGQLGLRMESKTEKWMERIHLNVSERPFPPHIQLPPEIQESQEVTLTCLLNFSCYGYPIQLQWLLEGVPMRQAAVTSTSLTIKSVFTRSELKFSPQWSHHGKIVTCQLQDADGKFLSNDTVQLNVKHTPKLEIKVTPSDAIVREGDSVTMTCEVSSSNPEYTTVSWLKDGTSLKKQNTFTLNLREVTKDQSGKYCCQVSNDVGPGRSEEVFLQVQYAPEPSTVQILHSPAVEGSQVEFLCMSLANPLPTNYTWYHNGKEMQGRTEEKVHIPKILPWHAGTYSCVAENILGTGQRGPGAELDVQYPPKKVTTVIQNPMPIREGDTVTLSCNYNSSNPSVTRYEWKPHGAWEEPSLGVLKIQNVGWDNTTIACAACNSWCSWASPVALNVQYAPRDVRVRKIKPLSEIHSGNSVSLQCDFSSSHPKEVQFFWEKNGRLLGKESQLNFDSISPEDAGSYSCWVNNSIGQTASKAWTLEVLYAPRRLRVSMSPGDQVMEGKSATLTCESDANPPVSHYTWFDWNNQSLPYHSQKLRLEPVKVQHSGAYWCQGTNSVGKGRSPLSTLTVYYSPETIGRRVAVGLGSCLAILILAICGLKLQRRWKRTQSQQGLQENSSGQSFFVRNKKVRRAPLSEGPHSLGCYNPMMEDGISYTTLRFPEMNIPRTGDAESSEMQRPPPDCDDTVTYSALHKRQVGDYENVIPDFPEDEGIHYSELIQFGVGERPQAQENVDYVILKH
test description: SPR binding affinity to human CD22
applied conditions: steady-state analysis
reported metric: Kd

compound	target or test system	endpoint value
C#CCOCCCCCCO[C@]1(C(=O)O)C[C@H](O)[C@@H](NC(=O)CNC)[C@H]([C@H](O)[C@H](O)CNC(=O)Cc2ccc(Cl)cc2)O1 [Compound 211]	human Siglec-2/CD22 protein (Homo sapiens, UniProt P20273)	< 1 µM
C#CCOCCOCCO[C@]1(C(=O)O)C[C@H](O)[C@@H](NC(=O)CO)[C@H]([C@H](O)[C@H](O)CNC(=O)c2cccc(Cl)c2)O1 [Compound 201]	human Siglec-2/CD22 protein (Homo sapiens, UniProt P20273)	> 10 µM
C#CCOCCNc1c(NCCCCCCO[C@]2(C(=O)O)C[C@H](O)[C@@H](NC(=O)CO)[C@H]([C@H](O)[C@H](O)CNC(=O)Cc3ccc(C(F)F)cc3)O2)c(=O)c1=O [Compound 216]	human Siglec-2/CD22 protein (Homo sapiens, UniProt P20273)	< 1 µM

###

target or test system: human Siglec-2/CD22 protein (Homo sapiens, UniProt P20273)
test description: SPR binding affinity to human CD22
applied conditions: steady-state analysis
pKd: −log10 of the molar value.

compound	pKd
C#CCOCCOCCO[C@]1(C(=O)O)C[C@H](O)[C@@H](NC(=O)CO)[C@H]([C@H](O)[C@H](O)CNC(=O)CCCCCCCCCCCCCCC)O1 [Compound 13]	< 5.00
C#CCCOc1ccc(CO[C@]2(C(=O)O)C[C@H](O)[C@@H](NC(=O)CO)[C@H]([C@H](O)[C@H](O)CNC(=O)Cc3ccc(-c4ccc(O)cc4)cc3)O2)cc1 [Compound 77]	> 6.00
C#CCCCCCCc1cn([C@]2(C(=O)O)C[C@H](O)[C@@H](NC(=O)CO)[C@H]([C@H](O)[C@H](O)CNC(=O)Cc3cccc(O)c3)O2)nn1 [Compound 147]	5.00 to 6.00
C#CCCOc1ccc(CO[C@]2(C(=O)O)C[C@H](O)[C@@H](NC(=O)CO)[C@H]([C@H](O)[C@H](O)CNC(=O)Cc3ccc(N4CCC(NC(C)=O)CC4)cc3)O2)cc1 [Compound 137]	< 5.00
C#CCOCCCCCCO[C@]1(C(=O)O)C[C@H](O)[C@@H](NC(=O)NCC)[C@H]([C@H](O)[C@H](O)CNC(=O)Cc2ccc(Cl)cc2)O1 [Compound 87]	> 6.00
C#CCOCCCCCCO[C@]1(C(=O)O)C[C@H](O)[C@@H](NC(=O)C(=O)NC)[C@H]([C@H](O)[C@H](O)CNC(=O)Cc2ccc(Cl)cc2)O1 [Compound 189]	5.00 to 6.00
C#CCOCCCCCCO[C@]1(C(=O)O)C[C@H](O)[C@@H](NC(=O)COC)[C@H]([C@H](O)[C@H](O)CNC(=O)Cc2ccc(Cl)cc2)O1 [Compound 192]	5.00 to 6.00
C#CCOCCOCCO[C@]1(C(=O)O)C[C@H](O)[C@@H](NC(=O)CO)[C@H]([C@H](O)[C@H](O)CNC(=O)Cc2cc(F)cc(C(F)(F)F)c2)O1 [Compound 133]	> 6.00
O=C(Cc1ccc(Cl)cc1)NC[C@@H](O)[C@@H](O)[C@@H]1O[C@@](OCC2CCOCC2)(C(=O)O)C[C@H](O)[C@H]1NC(=O)CO [Compound 106]	> 6.00
C#CCOCCOCCO[C@]1(C(=O)O)C[C@H](O)[C@@H](NC(=O)CO)[C@H]([C@H](O)[C@H](O)CNC(=O)c2ccc(-c3ccc(O)cc3)cc2)O1 [Compound 19]	> 6.00
C#CCOCCCCCCO[C@]1(C(=O)O)C[C@H](O)[C@@H](NC(=O)CO)[C@H]([C@H](O)[C@H](O)CNC(=O)Cc2ccc(C(F)(F)F)cc2)O1 [Compound 158]	> 6.00

###

Catalogue of pKd values
target or test system: human Siglec-2/CD22 protein (Homo sapiens, UniProt P20273)
test description: SPR binding affinity to human CD22
applied conditions: steady-state analysis
pKd: −log10 of the molar value.
reported metric: pKd

molecule smiles	reported metric	endpoint value
C#CCOCCOCCO[C@]1(C(=O)O)C[C@H](O)[C@@H](NC(=O)CO)[C@H]([C@H](O)[C@H](O)CNC(=O)Cc2ccc(C)cc2)O1	pKd	5.00 to 6.00
C#CCOCCCCCCO[C@]1(C(=O)O)C[C@H](O)[C@@H](NC(=O)CO)[C@H]([C@H](O)[C@H](O)CNC(=O)Cc2ccc(-c3nnn[nH]3)cc2)O1	pKd	> 6.00
C#CCOc1ccc(CO[C@]2(C(=O)O)C[C@H](O)[C@@H](NC(=O)CO)[C@H]([C@H](O)[C@H](O)CNC(=O)Cc3ccc(-c4ccc(F)cc4)cc3)O2)cc1	pKd	> 6.00
CCCCCCC[C@]1(C(=O)O)C[C@H](O)[C@@H](NC(=O)CO)[C@H]([C@H](O)[C@H](O)CNC(=O)Cc2ccc(Cl)cc2)O1	pKd	> 6.00
C#CCCOc1ccc(CO[C@]2(C(=O)O)C[C@H](O)[C@@H](NC(=O)CO)[C@H]([C@H](O)[C@H](O)CNC(=O)Cc3ccc(Cl)c(O)c3)O2)cc1	pKd	> 6.00
C#CCOCCCCCCO[C@]1(C(=O)O)C[C@H](O)[C@@H](NC(=O)NCC(F)(F)F)[C@H]([C@H](O)[C@H](O)CNC(=O)Cc2ccc(Cl)cc2)O1	pKd	5.00 to 6.00
C#CCCOc1ccc(CO[C@]2(C(=O)O)C[C@H](O)[C@@H](NC(=O)NC)[C@H]([C@H](O)[C@H](O)CNC(=O)Cc3ccc(-c4ccc(O)cc4)cc3)O2)cc1	pKd	> 6.00
C#CCCOc1ccc(CO[C@]2(C(=O)O)C[C@H](O)[C@@H](NC(=O)CO)[C@H]([C@H](O)[C@H](O)CNC(=O)Cc3ccccc3NC(C)=O)O2)cc1	pKd	5.00 to 6.00
C#CCOCCOCCO[C@]1(C(=O)O)C[C@H](O)[C@@H](NC(=O)NC)[C@H]([C@H](O)[C@H](O)CNC(=O)Cc2ccc(-c3ccc(O)cc3)cc2)O1	pKd	> 6.00
C#CCCCCNC(=O)CCCCCCO[C@]1(C(=O)O)C[C@H](O)[C@@H](NC(=O)CO)[C@H]([C@H](O)[C@H](O)CNC(=O)Cc2ccc(Cl)cc2)O1	pKd	> 6.00
CC(=O)NCCOCCOCCOCCOCCNc1c(NCCOCCOCCO[C@]2(C(=O)O)C[C@H](O)[C@@H](NC(=O)CO)[C@H]([C@H](O)[C@H](O)CNC(=O)Cc3ccc(-c4ccccc4)cc3)O2)c(=O)c1=O	pKd	5.00 to 6.00
